# System: Erythrocyte
# Test name: Hemolytic activity in human erythrocytes at 1 mM
# Format: functional
Reported property: Activity (%)
Field: numeric (%). Do not append units.

Query smiles	Reported property	Recorded measurement
CCCCCCC[C@@H]1C=CCOO1	Activity	60

Asked: Form entry - test system: Erythrocyte; read-out: Activity; compound: `CCCCCC[C@@]12COOC[C@@H]1O2`
Given back: 31

Asked: Form entry - test system: Erythrocyte; read-out: Activity; compound: `CCCCCCC[C@H]1OO[C@@H](CCC)[C@@H]2O[C@@H]21`
Given back: 45

Asked: Form entry - test system: Erythrocyte; read-out: Activity; compound: `CCCCCCC[C@H]1OO[C@@H](CCC)[C@H]2O[C@H]21`
Given back: 25

Asked: Form entry - test system: Erythrocyte; read-out: Activity; compound: `C1=C[C@@H](COCc2ccccc2)OO[C@H]1COCc1ccccc1`
Given back: 2

Asked: Form entry - test system: Erythrocyte; read-out: Activity; compound: `C[C@@H]1C=C[C@H](CO)OO1`
Given back: 0

---

# System: Erythrocyte
# Test name: Hemolytic activity in human erythrocytes at 1 mM
# Type: functional
Reported property: Activity (%)
Field: numeric (%). Do not append units.

Molecule	Test system	Activity [%]
CCCCCCC[C@@H]1C=C[C@H](CCC)OO1	Erythrocyte	86
CCCCCCC1=CCOOC1	Erythrocyte	61
C1=C[C@@H](C23CC4CC(CC(C4)C2)C3)OOC1	Erythrocyte	100
C1C2CC3CC1CC([C@H]1OOC[C@@H]4O[C@@H]41)(C2)C3	Erythrocyte	41

Asked: Look at this molecule and give its reported Activity. C1CC2OOC1C1OC21 (configuration not stated)
Given back: 0

Asked: Look at this molecule and give its reported Activity. `CCCCCCC[C@H]1OOC[C@@H]2O[C@@H]21`
Given back: 33

Asked: Look at this molecule and give its reported Activity. `c1ccc(COC[C@@H]2OO[C@H](COCc3ccccc3)[C@@H]3O[C@@H]32)cc1`
Given back: 1

Numbers sourced from ChEMBL document CHEMBL1144542.
